- target_of_assay: AII receptor subtypes of rat adrenal cortical membranes
- assay_notes: [125I]AII binding to rat adrenal cortical membranes with and without DTT pretreatment
- condition_context: read-out: IC50 in the absence of DTT; without DTT
reported_metric: IC50 (nM)

[[record]]
substance = "AII: octapeptide hormone which is a component of the renin-angiotensin system (DRVYIHPF; Angiotensin-2; UniProt P01019 25-32, looked up)"
recorded_value = 1


###

- target_of_assay: AII receptors of rat adrenal cortex
- assay_notes: Total specific [125I]AII binding to rat adrenal cortical microsomes
- condition_context: rat adrenal cortex; read-out: IC50 on the sensitive sites
reported_metric: IC50

[[record]]
input_smiles = "CCCCc1nc(Cl)c(CO)n1Cc1ccc(-c2ccccc2-c2nn[nH]n2)cc1"
recorded_value = "~5 nM"


###

- target_of_assay: AII receptors of rat adrenal cortex
- assay_notes: Total specific [125I]AII binding to rat adrenal cortical microsomes
- condition_context: rat adrenal cortical microsomes; DuP 753-sensitive site; read-out: approximated IC50, first site of biphasic displacement
reported_metric: IC50

[[record]]
input_smiles = "CCCCc1nc(Cl)c(CO)n1Cc1ccc(-c2ccccc2-c2nn[nH]n2)cc1"
target_of_assay = "AII receptors of rat adrenal cortex"
recorded_value = "~5 nM"


###

- target_of_assay: AT1 receptor
- assay_notes: [125I]AII binding to AT1 receptor, rat adrenal cortical microsomes, in the presence of 10^-5 M EXP-655 (DuP 753-sensitive sites)
- condition_context: rat adrenal cortex; read-out: inhibitory constant IC50, AT1 site
reported_metric: IC50

[[record]]
compound = "Cc1cc(Cn2cnc3c2CC(C(=O)O)N(C(=O)C(c2ccccc2)c2ccccc2)C3)ccc1N (stereo not shown)"
reported_metric = "IC50"
recorded_value = "~300 µM"


###

- target_of_assay: AT1 receptor
- assay_notes: [125I]AII binding to AT1 receptor, rat adrenal cortical microsomes, in the presence of 10^-5 M EXP-655 (DuP 753-sensitive sites)
- condition_context: rat adrenal cortex microsomes; in the presence of 10^-5 M EXP-655; read-out: IC50 AT1
pIC50: −log10 of the molar value.
Some molecules, each annotated with its measured pIC50.
reported_metric: pIC50

[[record]]
molecule = "O=C(O)C1Cc2cc(Oc3ccccc3)ccc2CN1C(=O)C(c1ccccc1)c1ccccc1 (centres unmarked)"
recorded_value = "< 5.00"

[[record]]
molecule = "COc1ccc(-c2cccc3c2CC(C(=O)O)N(C(=O)C(c2ccccc2)c2ccccc2)C3)cc1C (centres unmarked)"
recorded_value = "< 5.00"

